target: T1, human PILRA, G78 variant, ectopically expressed on 293 cells (human, UniProt Q9UKJ1 20-303); test: flow cytometry, 293 cells expressing target
T1 construct: the cells are labelled G78; also called hA G78 OE; hA
T1 sequence (Q9UKJ1 other isoform, or with tags, fused parts or gaps mutant): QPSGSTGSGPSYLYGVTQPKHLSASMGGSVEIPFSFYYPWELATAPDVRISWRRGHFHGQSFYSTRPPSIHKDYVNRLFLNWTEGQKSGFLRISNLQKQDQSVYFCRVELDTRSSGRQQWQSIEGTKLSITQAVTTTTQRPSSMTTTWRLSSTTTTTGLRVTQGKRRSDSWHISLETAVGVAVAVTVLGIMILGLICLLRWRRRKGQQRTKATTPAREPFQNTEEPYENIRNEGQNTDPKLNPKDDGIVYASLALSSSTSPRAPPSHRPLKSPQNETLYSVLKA
Reported values of EC50 for individual entries
Respond with the bare value in µg/mL.

{"Binder": "D5 (antibody, V domains shown, second hybridoma campaign) VH: EVKLDETGGGLVQPGRPMKLSCVASGFTFSDYWMNWVRQSPEKGLEWVAQIRNKLYNYETYYSDSVKGRFTISRDDSKSSVYLQMNNLRAEDMGIYYCTVGLAMDYWGQGTSVTVSS VL: DIQMTQSSSSFSVSLGDRVTITCKASEDIYNRLAWYQQKPGNAPRLLISGATSLETGVPSRFSGSGSGKEYTLNITSLQTEDVATYYCQQYWSTPTFGGGTKLEIK", "EC50 / µg/mL": 1}
{"Binder": "E21 (antibody, V domains shown, phage campaign) VH: QVQLVQSGAEVKKPGSSVKVSCKASGYTFSNYDINWVRQAPGQGLEWMGGIIPIFGTANYALKFQGRVTITADESTSTAYMELSSLRSEDTAVYYCARGGPWLYFDYWGQGTLVTVSS VL: DIQMTQSPSSLSASVGDRVTITCRASQSISTYLNWYQQKPGKAPKLLIYAASTLQSGVPSRFSGSGSGTDFTLTISSLQPEDFATYYCQQSYSSPLTFGQGTKLEIK", "EC50 / µg/mL": 0.7}

We next turn to a different binder, shown below.
## Input Find the recorded EC50 belonging to E11 (antibody, V domains shown, phage campaign) VH: QVQLVQSGAEVKKPGSSVKVSCKASGGTFSSYDISWVRQAPGQGLEWMGGIIPTFVTPKYAQKFQGRVTITADESTSTAYMELSSLRSEDTAVYYCAREGPKQLEEYYYYYMDVWGKGTTVTVSS VL: DIQMTQSPSSLSASVGDRVTITCRATQAISNSLAWYQQKPGKAPKLLIYAASYLQSGVPSRFSGSGSGTDFTLTISSLQPEDFATYYCQQAYSFPWTFGQGTKLEIK and report it.
## Output 0.2
